# SYSTEM: T1, mouse MET-Fc (R&D Systems) (mouse, UniProt P16056 25-929, limits assumed)
# T1 construct: bought chimeric protein; also called mMET; not shown: Fc part
# T1 sequence (P16056 25-929 limits assumed): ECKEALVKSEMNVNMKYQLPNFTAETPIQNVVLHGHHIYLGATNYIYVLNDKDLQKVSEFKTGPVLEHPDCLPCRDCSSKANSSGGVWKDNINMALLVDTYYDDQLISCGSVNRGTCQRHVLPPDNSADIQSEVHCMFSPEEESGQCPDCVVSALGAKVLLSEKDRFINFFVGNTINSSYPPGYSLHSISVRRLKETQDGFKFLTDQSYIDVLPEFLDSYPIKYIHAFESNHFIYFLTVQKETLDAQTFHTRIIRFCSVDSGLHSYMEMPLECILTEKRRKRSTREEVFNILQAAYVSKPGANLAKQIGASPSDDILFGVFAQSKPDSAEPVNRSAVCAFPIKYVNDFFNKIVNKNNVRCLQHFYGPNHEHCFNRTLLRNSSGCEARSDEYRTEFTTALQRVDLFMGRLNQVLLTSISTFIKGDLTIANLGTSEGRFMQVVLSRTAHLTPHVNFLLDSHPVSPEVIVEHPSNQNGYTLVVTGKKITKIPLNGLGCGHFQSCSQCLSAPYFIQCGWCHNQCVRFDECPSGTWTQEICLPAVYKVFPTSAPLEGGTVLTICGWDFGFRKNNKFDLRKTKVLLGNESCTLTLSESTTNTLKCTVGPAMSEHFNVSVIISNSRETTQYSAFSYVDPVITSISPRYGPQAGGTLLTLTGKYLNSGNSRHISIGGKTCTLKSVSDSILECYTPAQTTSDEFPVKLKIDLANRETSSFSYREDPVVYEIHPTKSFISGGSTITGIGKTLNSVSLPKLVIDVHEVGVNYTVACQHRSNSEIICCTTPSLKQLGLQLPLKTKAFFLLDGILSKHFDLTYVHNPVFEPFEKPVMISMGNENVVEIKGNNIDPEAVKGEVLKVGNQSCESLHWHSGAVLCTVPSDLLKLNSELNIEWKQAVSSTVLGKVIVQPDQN
# PROTOCOL_SUMMARY: competition ELISA, mMET-Fc in solid phase, competitor 0.3 nM biotinylated mHGF
Quick rule for you: IC50 under 500 pM gets Satisfied, anything else gets Not satisfied.

*Q* Would you kindly verify if IC50 of 76G7 chimeric llama-human IgG1 mAb (antibody, V domains shown, llama VH on human IgG1 CH1-CH2-CH3, llama VL on human lambda CL) VH: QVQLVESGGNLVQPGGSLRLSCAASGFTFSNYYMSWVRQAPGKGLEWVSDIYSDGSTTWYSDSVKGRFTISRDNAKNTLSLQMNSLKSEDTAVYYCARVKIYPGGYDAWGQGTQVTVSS VL: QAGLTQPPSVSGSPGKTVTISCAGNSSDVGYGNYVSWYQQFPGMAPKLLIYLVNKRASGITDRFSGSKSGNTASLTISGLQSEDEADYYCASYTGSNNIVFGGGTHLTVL is strictly less than 500 pM?
*A* Not satisfied

*Q* Would you kindly verify if IC50 of 71G12 chimeric llama-human IgG1 mAb (antibody, V domains shown, llama VH on human IgG1 CH1-CH2-CH3, llama VL on human kappa CL) VH: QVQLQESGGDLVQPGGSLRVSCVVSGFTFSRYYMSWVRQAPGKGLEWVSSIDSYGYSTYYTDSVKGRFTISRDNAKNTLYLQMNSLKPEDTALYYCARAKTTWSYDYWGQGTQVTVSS VL: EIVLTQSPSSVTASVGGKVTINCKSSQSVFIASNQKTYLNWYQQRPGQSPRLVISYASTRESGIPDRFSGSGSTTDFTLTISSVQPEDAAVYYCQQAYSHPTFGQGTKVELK is strictly less than 500 pM?
*A* Not satisfied

*Q* Would you kindly verify if IC50 of 71A3 chimeric llama-human IgG1 mAb (antibody, V domains shown, llama VH on human IgG1 CH1-CH2-CH3, llama VL on human lambda CL) VH: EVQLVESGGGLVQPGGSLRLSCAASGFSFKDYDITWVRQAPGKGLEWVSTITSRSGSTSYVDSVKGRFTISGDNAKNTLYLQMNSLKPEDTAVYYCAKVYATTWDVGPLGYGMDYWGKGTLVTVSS VL: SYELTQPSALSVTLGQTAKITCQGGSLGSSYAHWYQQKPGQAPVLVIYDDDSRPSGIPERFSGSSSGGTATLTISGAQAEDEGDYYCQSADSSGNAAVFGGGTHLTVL is strictly less than 500 pM?
*A* Not satisfied

*Q* Would you kindly verify if IC50 of 71D6 chimeric llama-human IgG1 mAb (antibody, V domains shown, llama VH on human IgG1 CH1-CH2-CH3, llama VL on human lambda CL) VH: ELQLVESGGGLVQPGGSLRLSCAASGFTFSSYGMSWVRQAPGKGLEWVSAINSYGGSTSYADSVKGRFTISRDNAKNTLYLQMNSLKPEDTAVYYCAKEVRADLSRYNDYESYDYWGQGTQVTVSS VL: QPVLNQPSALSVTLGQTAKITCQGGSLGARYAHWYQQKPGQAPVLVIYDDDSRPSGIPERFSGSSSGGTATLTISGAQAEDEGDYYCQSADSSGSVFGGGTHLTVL is strictly less than 500 pM?
*A* Satisfied
